test target: Sigma intracellular receptor 2 (Rattus norvegicus, UniProt Q5U3Y7)
Sequence (Q5U3Y7 whole entry): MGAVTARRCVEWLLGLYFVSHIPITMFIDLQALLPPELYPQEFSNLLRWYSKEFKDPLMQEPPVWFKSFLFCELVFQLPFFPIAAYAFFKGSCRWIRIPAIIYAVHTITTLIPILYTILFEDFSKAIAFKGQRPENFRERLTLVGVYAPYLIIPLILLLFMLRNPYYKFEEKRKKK
assay procedure: Displacement of [3H]di-o-tolylguanidine from rat liver membrane sigma 2 assessed as inhibition constant incubated for 120 mins
Assay type: cell membranes
recorded metric: Ki
Answer as a quantity: numeral, then unit.

Task: Find the measured Ki: item "CC(=O)c1ccc2c(c1)oc(=O)n2CCCCN1CCN(c2ccc(F)cc2N)CC1" , target or system Sigma intracellular receptor 2 (Rattus norvegicus, UniProt Q5U3Y7).
Output: 3.5 nM

###

assay procedure: Metabolic stability in mouse liver microsome assessed as intrinsic clearance incubated upto 60 mins in presence of NADPH regenerating system by UPLC-MS/MS analysis
Type: ADME
measurement parameters: liver microsomes, read-out: CLH
recorded metric: microsomal CLint (µL/min/mg)
Could you give me the number in µL/min/mg? Just the number is fine.

Task: Any idea what microsomal CLint was measured for "CCc1ncc(-c2cc(C)no2)c(C2CCN(CC(=O)N3CCOCC3)CC2)n1" ?
Output: 2.8

###

assay procedure: Drug concentration in Wistar rat plasma at 10 mg/kg, po measured for 10 mins by UPLC-MS/MS analysis
Assay type: ADME, organism-based
recorded metric: concentration at 10 min (ng/g)
Numeric answer only, unit ng/g assumed.

Task: Name the reported concentration at 10 min value associated with the compound "CCc1ncc(-c2cc(C)no2)c(C2CCN(CC(=O)N3CCOCC3)CC2)n1"
Output: 250

###

test target: Sigma non-opioid intracellular receptor 1 (Cavia porcellus, UniProt Q60492)
Sequence (Q60492 whole entry): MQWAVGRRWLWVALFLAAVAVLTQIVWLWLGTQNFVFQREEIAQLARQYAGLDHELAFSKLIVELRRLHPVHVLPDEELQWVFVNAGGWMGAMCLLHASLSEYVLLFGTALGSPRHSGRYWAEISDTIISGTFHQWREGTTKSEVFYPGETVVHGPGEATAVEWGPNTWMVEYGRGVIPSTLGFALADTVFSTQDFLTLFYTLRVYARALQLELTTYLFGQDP
recorded metric: pKi
By convention, pKi is the negative base-10 log of a molar concentration.

Task: Hello, I am looking for reported pKi with Sigma non-opioid intracellular receptor 1 (Cavia porcellus, UniProt Q60492) for "CN1CC[C@]2(c3cccc(O)c3)CC(=O)/C(=C/c3ccc(Cl)c(Cl)c3)[C@H]1C2" . Could you help?
Output: 5.13

###

test target: Sigma non-opioid intracellular receptor 1 (Homo sapiens, UniProt Q99720)
Sequence (Q99720 whole entry): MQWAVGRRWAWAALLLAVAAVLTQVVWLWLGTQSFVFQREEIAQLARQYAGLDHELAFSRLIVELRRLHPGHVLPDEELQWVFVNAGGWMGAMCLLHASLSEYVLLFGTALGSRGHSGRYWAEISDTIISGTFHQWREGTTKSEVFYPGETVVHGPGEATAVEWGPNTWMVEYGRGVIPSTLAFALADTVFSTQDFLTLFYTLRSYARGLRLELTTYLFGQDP
assay procedure: Displacement of [3H]-(+)-pentazocine from human sigma1 receptor transfected in HEK293 cell membranes assessed as inhibition constant incubated for 120 mins in presence of haloperidol by microbeta scintillation counter analysis
Parameters: species or system Cell membrane
pKi: −log10 of the molar value.
recorded metric: pKi

Please review the entries below; each comes with its answer.
CCc1ncc(-c2cc(C)no2)c(C2CCN(CC(=O)N3CCCOCC3)CC2)n1 :: < 6.00
CCc1ncc(-c2ccncc2)c(C2CCN(CC(=O)N3CCOCC3)CC2)n1 :: 6.09
Cc1cc(-c2cnc(C)nc2C2CCN(CC(=O)N3CCOCC3)CC2)on1 :: 5.08
CCc1ncc(-c2cc(C)no2)c([C@H]2CCCN(CC(=O)N3CCOCC3)C2)n1 :: < 5.00
CCCc1ncc(-c2cc(C)no2)c(C2CCN(CC(=O)N3CCOCC3)CC2)n1 :: < 6.00

Task: # input molecule: "CCc1ncc(-c2ccccn2)c(C2CCN(CC(=O)N3CCOCC3)CC2)n1" ; wanted: its pKi
Output: < 6.00

Task: I am curious: what pKi value has been reported for "CCc1ncc(-c2cc(C)no2)c(C2CCN(CC(=O)N3CCOCC3)CC2)n1" ?
Output: 5.75

Task: I'd like to know its pKi. The molecule in question is CCc1ncc(-c2cc(C)no2)c(C2CCN(CC(=O)N3CCOCC3)C2)n1 (stereo unspecified)
Output: < 6.00

Task: What pKi value was documented for this molecule, "Cc1cc(-c2cncnc2C2CCN(CC(=O)N3CCOCC3)CC2)on1" ?
Output: < 6.00

Task: Look up pKi for this molecule: "Cc1cc(-c2cnc(C3CC3)nc2C2CCN(CC(=O)N3CCOCC3)CC2)on1"
Output: 6.10

###

assay procedure: Apparent permeability across apical to basolateral side in human Caco-2 cells incubated for 2 hrs by UPLC-MS/MS analysis
Type: ADME, cell-based
recorded metric: Papp A→B at 2 h (×10⁻⁶ cm/s)
# unit: ×10⁻⁶ cm/s | format: bare number

Task: Recorded Papp A→B at 2 h of "CCc1ncc(-c2cc(C)no2)c(C2CCN(CC(=O)N3CCOCC3)CC2)n1" , please.
Output: 17.7

###

assay procedure: Clearance in Wistar rat at 1 mg/kg, iv by UPLC-MS/MS analysis
Format: ADME, organism-based
measurement parameters: in vivo
recorded metric: clearance (mL/min/kg)
Write the value in mL/min/kg as a bare number.

Task: If you can, please state the reported clearance value of "CCc1ncc(-c2cc(C)no2)c(C2CCN(CC(=O)N3CCOCC3)CC2)n1" .
Output: 28.3

###

assay procedure: AUC in Wistar rat at 10 mg/kg, po by UPLC-MS/MS analysis
Format: ADME, organism-based
Set-up: dose 10 mg/kg, route po
measurement parameters: in vivo
recorded metric: AUC

Task: # input compound: "CCc1ncc(-c2cc(C)no2)c(C2CCN(CC(=O)N3CCOCC3)CC2)n1" ; wanted: its AUC
Output: 3000 ng·h/mL

###

assay procedure: Metabolic stability in mouse liver microsome assessed as parent compound remaining at 1 uM measured after 1 hr in presence of NADPH regenerating system by UPLC-MS/MS analysis
Assay type: ADME
measurement parameters: liver microsomes, read-out: Stability
List of remaining at 1 h, 1 µM values.
Give your result in % as a bare value.

CCCc1ncc(-c2cc(C)no2)c(C2CCN(CC(=O)N3CCOCC3)CC2)n1 :: 89
Cc1cc(-c2cnc(C(F)(F)F)nc2C2CCN(CC(=O)N3CCOCC3)CC2)on1 :: 77
CCc1ncc(-c2cc(C)no2)c(C2CCN(CCN3CCOCC3)CC2)n1 :: 56
CCc1ncc(-c2cccc(C)n2)c(C2CCN(CC(=O)N3CCOCC3)CC2)n1 :: 76
Cc1cc(-c2cnc(C(C)C)nc2C2CCN(CC(=O)N3CCOCC3)CC2)on1 :: 65

Task: Please give the measured remaining at 1 h, 1 µM for this compound: "CCc1ncc(-c2cc(C)no2)c(C2CCN(CCC(=O)N3CCOCC3)CC2)n1"
Output: 94

Task: Which remaining at 1 h, 1 µM is reported for this compound? "CCc1ncc(-c2cc(C)no2)c(C2CCN(CC(=O)N3CCC4(CCOC4)CC3)CC2)n1"
Output: 88

Task: Sample "Cc1cc(-c2cnc(C)nc2C2CCN(CC(=O)N3CCOCC3)CC2)on1" — what was its remaining at 1 h, 1 µM?
Output: 87

Task: Please give the measured remaining at 1 h, 1 µM for this compound: "CCc1ncc(-c2cc(C)no2)c(C2CCN(CC(=O)N3CCOCC3)CC2)n1"
Output: 93

Task: Could you tell me which remaining at 1 h, 1 µM is on file for "CCc1ncc(-c2cc(C)no2)c(C2CCN(CC(=O)N3CCCN(C)CC3)CC2)n1" ?
Output: 83

###

assay procedure: Solubility of the compound at pH 7.4
Type: physicochemical
measurement parameters: buffer
recorded metric: solubility (µg/mL)
State the answer as a number, implicitly in µg/mL.

Task: Can you look up the measured solubility of "CCc1ncc(-c2cc(C)no2)c(C2CCN(CC(=O)N3CCOCC3)CC2)n1" for me?
Output: 7280

###

test target: Cytochrome P450 2C19 (Homo sapiens, UniProt P33261)
Sequence (P33261 whole entry): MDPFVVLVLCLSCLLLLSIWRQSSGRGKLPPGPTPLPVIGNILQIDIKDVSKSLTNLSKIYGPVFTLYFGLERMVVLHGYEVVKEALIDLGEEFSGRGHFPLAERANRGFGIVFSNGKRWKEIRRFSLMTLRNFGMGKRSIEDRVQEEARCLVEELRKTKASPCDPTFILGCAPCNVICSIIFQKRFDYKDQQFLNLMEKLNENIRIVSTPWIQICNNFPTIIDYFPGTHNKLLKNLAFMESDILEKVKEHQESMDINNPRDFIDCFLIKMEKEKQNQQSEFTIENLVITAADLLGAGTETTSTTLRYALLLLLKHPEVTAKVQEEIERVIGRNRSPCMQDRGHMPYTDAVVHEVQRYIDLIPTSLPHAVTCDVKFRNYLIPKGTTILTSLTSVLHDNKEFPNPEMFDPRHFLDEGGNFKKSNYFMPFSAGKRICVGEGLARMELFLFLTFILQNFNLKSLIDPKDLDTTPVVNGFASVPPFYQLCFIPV
recorded metric: IC50

Task: If you can, please state the reported IC50 value of "CCc1ncc(-c2cc(C)no2)c(C2CCN(CC(=O)N3CCOCC3)CC2)n1" .
Output: > 900 µM

###

assay procedure: Metabolic stability in human liver microsome assessed as parent compound remaining at 1 uM measured after 1 hr in presence of NADPH regenerating system by UPLC-MS/MS analysis
Type: ADME
measurement parameters: liver microsomes, read-out: Stability
Lab note: anything with remaining at 1 h, 1 µM below 90% is marked 1.0; values at 90% or higher are marked 0.0.

Some solved entries appear below for comparison.
CCc1ncc(-c2cccc(C)n2)c(C2CCN(CC(=O)N3CCOCC3)CC2)n1 :: 1.0
CCc1ncc(-c2cc(C)no2)c(C2CCN(CCC(=O)N3CCOCC3)CC2)n1 :: 1.0
CCc1ncc(-c2cc(C)no2)c(C2CCN(CCN3CCOCC3)CC2)n1 :: 1.0
Cc1cc(-c2cnc(C(F)(F)F)nc2C2CCN(CC(=O)N3CCOCC3)CC2)on1 :: 1.0
CCc1ncc(-c2cc(C)no2)c(C2CCN(CC(=O)N3CCCCC3)CC2)n1 :: 1.0
CCc1ncc(-c2cc(C)no2)c(C2CCN(CC(=O)N3CCCN(C)CC3)CC2)n1 :: 1.0
Cc1cc(-c2cnc(C3CC3)nc2C2CCN(CC(=O)N3CCOCC3)CC2)on1 :: 1.0
CCc1ncc(-c2cc(C)no2)c(C2CCN(CC(=O)N3CCCOCC3)CC2)n1 :: 1.0
Cc1cc(-c2cnc(C)nc2C2CCN(CC(=O)N3CCOCC3)CC2)on1 :: 0.0
CCc1ncc(-c2cc(C)no2)c(C2CCN(CC(=O)N3CCOCC3)CC2)n1 :: 0.0

Task: Criterion: remaining at 1 h, 1 µM strictly below 90%. Is it met by "CCc1ncc(-c2cc(C)no2)c(C2CCN(CC(=O)N3CCC4(CCOC4)CC3)CC2)n1" ?
Output: 1.0

Task: Is remaining at 1 h, 1 µM of "Cc1cc(-c2cnc(C(C)C)nc2C2CCN(CC(=O)N3CCOCC3)CC2)on1" strictly below 90%?
Output: 1.0

Task: For "CC(C)(C)Oc1cc(CCC(C)(C)N2Cc3ccc(S(C)(=O)=O)cc3C2)ccc1O" , is the recorded remaining at 1 h, 1 µM below the cut-off of 90%?
Output: 1.0
